- Tested on: Oryza sativa, (L.) Tebonnet
- method: Rice tolerance to post-transplant applications under flooded paddy conditions (Example 187), ORYSAT (Rice, Tebonnet); note: meaning of each grade not given here
- experimental context: Rate 0.0320 kg/ha, rated three to four weeks after treatment
So basically: herbicidal effect rating ORYSAT at 1 or higher? That is TRUE. Lower than 1? That is FALSE.

- compound: "C[C@@H](Br)[C@H](Br)c1nsc2ccc(-n3c(=O)cc(C(F)(F)F)n(C)c3=O)cc12"
  cat: "TRUE"
- compound: "Cn1c(C(F)(F)F)cc(=O)n(-c2ccc3snc(C(C#N)(Cc4ccccc4)Cc4ccccc4)c3c2)c1=O"
  cat: "FALSE"
- compound: "CCCCS(=O)(=O)NC(=O)C(C)Oc1ccc(C)cc1-c1nsc2ccc(-n3c(=O)cc(C(F)(F)F)n(C)c3=O)cc12 (stereo not drawn)"
  cat: "FALSE"
- compound: "Cn1c(C(F)(F)F)cc(=O)n(-c2ccc3snc(-c4ccccc4OCC(=O)NS(=O)(=O)CCl)c3c2)c1=O"
  cat: "TRUE"
- compound: "CCOc1cccc(-c2nsc3ccc(-n4c(=O)cc(C(F)(F)F)n(C)c4=O)cc23)c1"
  cat: "TRUE"

Tell me whether herbicidal effect rating ORYSAT is at least 1 here: Cc1ccc(OC(C)C(=O)NS(C)(=O)=O)c(-c2nsc3ccc(-n4c(=O)cc(C(F)(F)F)n(C)c4=O)cc23)c1 (stereo not drawn)
FALSE

Now give it for `Cn1c(C(F)(F)F)cc(=O)n(-c2ccc3snc(C(=O)NS(=O)(=O)c4cccs4)c3c2)c1=O` too.
TRUE

Now give it for CC(Oc1ccccc1-c1nsc2ccc(-n3c(=O)cc(C(F)(F)F)n(C)c3=O)cc12)C(=O)O (stereo not drawn) too.
TRUE

Now give it for `Cn1c(C(F)(F)F)cc(=O)n(-c2ccc3snc(C(C#N)=Cc4cc5ccccc5[nH]4)c3c2)c1=O` too.
TRUE

Now give it for Cn1c(C(F)(F)F)cc(=O)n(-c2ccc3snc(C(=O)NS(=O)(=O)CCl)c3c2)c1=O [Example 324] too.
TRUE

Now give it for `COC(=O)COc1ccc(OC)cc1-c1nsc2ccc(-n3c(=O)cc(C(F)(F)F)n(C)c3=O)cc12` too.
TRUE

Now give it for Cc1ccc(OC(C)C(=O)NS(=O)(=O)C(C)C)c(-c2nsc3ccc(-n4c(=O)cc(C(F)(F)F)n(C)c4=O)cc23)c1 (stereo not drawn) too.
FALSE

Now give it for `Cn1c(C(F)(F)F)cc(=O)n(-c2ccc3snc(C(=O)CBr)c3c2)c1=O` too.
TRUE

Now give it for `Cn1c(C(F)(F)F)cc(=O)n(-c2ccc3snc(CN(C(=O)OC(C)(C)C)S(C)(=O)=O)c3c2)c1=O` too.
FALSE
